Target: T1, human Fc-His-FBG (human, UniProt P24821 1974-2201)
T1 sequence: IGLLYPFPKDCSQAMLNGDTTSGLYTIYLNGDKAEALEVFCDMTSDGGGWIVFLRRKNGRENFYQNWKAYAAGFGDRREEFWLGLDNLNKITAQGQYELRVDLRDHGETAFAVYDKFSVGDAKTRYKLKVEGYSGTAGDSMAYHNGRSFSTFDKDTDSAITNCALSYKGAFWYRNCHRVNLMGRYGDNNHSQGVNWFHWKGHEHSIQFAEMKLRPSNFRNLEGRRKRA
Experiment: cell-based or functional assay
measured quantity: IC50, inhibition of Fc-His-HuFBG-evoked alkaline phosphatase, THP1-Blue cells (nM)
Report only the number, with the unit nM understood.

In the examples that follow, each entry is paired with its recorded IC50, inhibition of Fc-His-HuFBG-evoked alkaline phosphatase, THP1-Blue cells.
Fab B12 (Fab, V domains shown, monomeric Fab) VH: QVQLVESGGGLVQPGRSLRLSCAASGFTFDDYAMHWVRQAPGKGLEWVSGISGSGGSTYYADSVKGRFTISRDNAKNSLYLQMNSLRAEDTALYYCAKDISAVPDTFDIWGQGTMVTVSS VL: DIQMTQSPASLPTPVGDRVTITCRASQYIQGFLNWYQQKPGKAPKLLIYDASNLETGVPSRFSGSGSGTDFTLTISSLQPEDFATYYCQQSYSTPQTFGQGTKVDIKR; 1.7
Fab 2A5 (Fab, V domains shown, monomeric Fab) VH: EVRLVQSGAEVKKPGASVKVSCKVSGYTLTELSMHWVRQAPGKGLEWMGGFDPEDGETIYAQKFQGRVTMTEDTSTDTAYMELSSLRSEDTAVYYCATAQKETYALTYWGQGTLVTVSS VL: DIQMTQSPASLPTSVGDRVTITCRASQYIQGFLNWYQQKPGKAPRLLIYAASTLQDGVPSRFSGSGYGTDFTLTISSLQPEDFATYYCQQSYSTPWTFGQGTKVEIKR; 20.6
Fab D8 (Fab, V domains shown, monomeric Fab) VH: EVQLVQSGAEVKKPGASVKVSCKASGYTFTSYGISWVRQAPGQGLEWMGWISAYNGNTNYAQKLQGRVTMTTDTSTSTAYMELRSLRSDDTAVYYCARNQDSSSDYWGQGTLVTVSS VL: DIQMTQSPASLPTSVGDRVTITCRASQYIQGFLNWYQQKPGKAPKLLIYDASNLETGVPSRFSGSGSGTDFTLTISSLQPEDFATYYCQQSYSTLQTFGQGTKVDIKR; 7.2

Read the next record carefully.
// query Sample Fab F3 (Fab, V domains shown, monomeric Fab) VH: EVQLLESGGGLVQPGGSLRLSCAASGFTFSSYGMHWVRQAPGKGLEWVAVISYDGSNKYYADSVKGRFTISRGNSKNTLYLQMNSLKAEDTAVYYCAREGYDQLFSAESNAFDIWGQGTLVTVSS VL: NFMLAQPHSVSESPGKTVTISCTRSSGSIASYFVQWFQQRPGSAPTAVIYEDNQRPSGVPDRFSGSIDSSSNSASLTISGLKTEDEADYYCQSYDSSNWVFGGGTKVTVLG — what was its IC50, inhibition of Fc-His-HuFBG-evoked alkaline phosphatase, THP1-Blue cells?
// result 8.4
